Give self-cleavage for every item shown.
B1: CPEB3 Ribozyme (parent)
chain: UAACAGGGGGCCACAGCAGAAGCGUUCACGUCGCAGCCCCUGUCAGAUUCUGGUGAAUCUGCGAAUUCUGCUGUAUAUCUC

variants of: B1; test: self-cleavage, relative activity (ratio to wild type); higher = more cleavage; in vitro, sequencing
Field format: numeric only.

For A57G C59A , write its self-cleavage.
0.2

Give self-cleavage for A5C C71U
0.57

Tell us which self-cleavage value is on record for G16U U26A
0.26

Supply recorded self-cleavage for G63A U78A here.
0.93

Check the records and state self-cleavage for A20C A56C
0.22

Tell me its self-cleavage given A18U A45C as the entry.
0.16

Look up and state reported self-cleavage for G6U A13U
0.18

Item C38G : provide self-cleavage
0.26

Note down self-cleavage recorded for U25C U51A
0.27

Tell me its self-cleavage given A15C U31A as the entry.
0.42

Find the measured self-cleavage of U58C A65G and report it.
0.27

Note down self-cleavage recorded for A2G G61A
0.31

Annotate the variant U25C U41A with its measured self-cleavage.
0.3

Specify measured self-cleavage for A3U C32G .
0.47

Recall and state the measured self-cleavage for A15G A56G .
0.62

Return the recorded self-cleavage value; entry: C11G A65G
0.21

Indicate its recorded self-cleavage; the variant in question is G8C U25C
0.15

Output measured self-cleavage for this item: C62G U69A
0.15

Give the reported self-cleavage for this variant. A15C A21U
0.34

Please look at this variant and report its self-cleavage: A20G U41A
0.28

Return reported self-cleavage. Input variant: A15U G30U
0.15
